inhibition by entry:
Study target: Fructose-bisphosphate aldolase (Mycobacterium tuberculosis (strain ATCC 25618 / H37Rv))
Procedure details: Mtb FBA enzyme inhibitors, primary screen, biochemical, fluorescence, strain H37Rv (AID 588726);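 also: 0% = vehicle and 100% = reference inhibitor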
Condition parameters: purified M. tuberculosis FBA, fluorescence read-out, at 1 µM, stronger effect = higher value
Screen size: about 360,000 compounds; about 8,200 (2.3%) were called active. Shown is part of a subset that was picked to be rich in actives.
Test readout: inhibition (%)

[
  {
    "Compound": "COc1ccc(CNC(=O)C[C@H]2C[C@H](C(=O)N3CCOCC3)[C@@]3(C)c4[nH]c5cc(CCC(=O)N(C)C)ccc5c4CCN3C2=O)cc1OC",
    "Study target": "Fructose-bisphosphate aldolase (Mycobacterium tuberculosis (strain ATCC 25618 / H37Rv))",
    "Result number": -3.63
  },
  {
    "Compound": "CC1=C(C(=O)N2CCOCC2)CC(CC(=O)NCc2cccs2)C(=O)N1CCCN1CCCC1=O (centres undefined)",
    "Study target": "Fructose-bisphosphate aldolase (Mycobacterium tuberculosis (strain ATCC 25618 / H37Rv))",
    "Result number": 2.87
  },
  {
    "Compound": "O=C(NCc1ccccc1)c1onc(CSc2nc3ccccc3[nH]2)c1C(=O)NCc1ccccc1",
    "Study target": "Fructose-bisphosphate aldolase (Mycobacterium tuberculosis (strain ATCC 25618 / H37Rv))",
    "Result number": 27.9
  },
  {
    "Compound": "O=C(NC1CCN(Cc2ccccc2)CC1)c1ccc(Oc2cc(Cl)cc(Cl)c2)o1",
    "Study target": "Fructose-bisphosphate aldolase (Mycobacterium tuberculosis (strain ATCC 25618 / H37Rv))",
    "Result number": 1.42
  },
  {
    "Compound": "Cc1ccc(-n2c(SCC(=O)N3CCC(C(=O)O)CC3)nc3ccccc3c2=O)cc1C",
    "Study target": "Fructose-bisphosphate aldolase (Mycobacterium tuberculosis (strain ATCC 25618 / H37Rv))",
    "Result number": -6.87
  },
  {
    "Compound": "O=C(NC1CCN(Cc2ccccc2)CC1)c1cc(Br)c(Br)[nH]1",
    "Study target": "Fructose-bisphosphate aldolase (Mycobacterium tuberculosis (strain ATCC 25618 / H37Rv))",
    "Result number": 40
  },
  {
    "Compound": "COC(=O)c1cn(C(=O)c2ccc(Cl)cc2)c2ccccc12",
    "Study target": "Fructose-bisphosphate aldolase (Mycobacterium tuberculosis (strain ATCC 25618 / H37Rv))",
    "Result number": -0.26
  },
  {
    "Compound": "Cc1ccc(Cn2c(=N)c(S(=O)(=O)c3ccc(C)cc3)cc3c(=O)n4ccccc4nc32)cc1",
    "Study target": "Fructose-bisphosphate aldolase (Mycobacterium tuberculosis (strain ATCC 25618 / H37Rv))",
    "Result number": 3.69
  },
  {
    "Compound": "CC(C)=CCN1CCN(Cc2ccc(Oc3ncccn3)cc2)CC1CCO (centres undefined)",
    "Study target": "Fructose-bisphosphate aldolase (Mycobacterium tuberculosis (strain ATCC 25618 / H37Rv))",
    "Result number": 0.18
  }
]

====

inhibition by entry:
Study target: Fructose-bisphosphate aldolase (Mycobacterium tuberculosis (strain ATCC 25618 / H37Rv)) (UniProt P9WQA3)
Sequence (P9WQA3 whole entry, looked up): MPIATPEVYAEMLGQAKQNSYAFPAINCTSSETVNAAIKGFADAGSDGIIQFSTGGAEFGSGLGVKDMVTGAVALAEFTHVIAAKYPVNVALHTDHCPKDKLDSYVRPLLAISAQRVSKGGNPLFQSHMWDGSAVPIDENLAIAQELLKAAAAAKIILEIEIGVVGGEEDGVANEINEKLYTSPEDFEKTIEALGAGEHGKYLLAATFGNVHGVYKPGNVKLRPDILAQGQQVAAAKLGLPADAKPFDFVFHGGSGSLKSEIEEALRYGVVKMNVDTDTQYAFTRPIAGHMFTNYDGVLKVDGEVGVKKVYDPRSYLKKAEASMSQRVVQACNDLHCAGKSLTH
Procedure details: Mtb FBA enzyme inhibitors, primary screen, biochemical, fluorescence, strain H37Rv (AID 588726);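 also: 0% = vehicle and 100% = reference inhibitor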
Condition parameters: purified M. tuberculosis FBA, fluorescence read-out, at 1 µM, stronger effect = higher value
Out of some 360,000 compounds screened, about 8,200 (2.3%) were called active. Shown is part of a subset that was picked to be rich in actives.

[
  {
    "Compound": "COc1ccc2cc(CCl)c(Cl)nc2c1",
    "Unit of measure": "%",
    "inhibition": 0.58
  },
  {
    "Compound": "COc1ccc2nc(-c3ccccn3)ccc2c1",
    "Unit of measure": "%",
    "inhibition": 77.3
  },
  {
    "Compound": "C#Cc1ccc(NC(=O)C2(C)CCN2C(=O)Cc2ccc(-c3ccccc3)cc2)cc1 (stereo unspecified)",
    "Unit of measure": "%",
    "inhibition": -1.12
  },
  {
    "Compound": "O=C(NCC(=O)N1CCN(c2ccccc2O)CC1)c1ccc2ccccc2c1",
    "Unit of measure": "%",
    "inhibition": 1.15
  },
  {
    "Compound": "O=C(Nc1nnc(C2CC2)s1)c1ccccn1",
    "Unit of measure": "%",
    "inhibition": 2.11
  },
  {
    "Compound": "CCSc1nc(=S)n(CC)c(C)c1C(C)=O",
    "Unit of measure": "%",
    "inhibition": -0.42
  }
]

====

Study target: Fructose-bisphosphate aldolase (Mycobacterium tuberculosis (strain ATCC 25618 / H37Rv))
Procedure details: Mtb FBA enzyme inhibitors, primary screen, biochemical, fluorescence, strain H37Rv (AID 588726);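 also: 0% = vehicle and 100% = reference inhibitor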
Condition parameters: purified M. tuberculosis FBA, fluorescence read-out, at 1 µM, stronger effect = higher value
The campaign covered roughly 360,000 compounds. About 8,200 (2.3%) were called active. The sample holds actives, similar compounds and a random draw of the others, so the mix is not that of the screen.
inhibition by entry:

[
  {
    "Molecule": "CCOC(=O)CSc1nc(C)cc2c1C(=O)OC2",
    "inhibition (%)": -3.48
  },
  {
    "Molecule": "Cc1nc2nc(C)c(NS(=O)(=O)c3ccc(C(C)(C)C)cc3)c(=O)n2[nH]1",
    "inhibition (%)": 1.79
  },
  {
    "Molecule": "O=C(Nc1nccs1)C1CCCN1S(=O)(=O)c1cccc2cccnc12 (stereo unspecified)",
    "inhibition (%)": -1.37
  },
  {
    "Molecule": "O=C(Nc1ccc(N2CCN(C(=O)c3ccccc3)CC2)c(Cl)c1)c1cccnc1",
    "inhibition (%)": -4.3
  },
  {
    "Molecule": "COCc1c(C(=O)OCc2c(C)noc2C)oc2ccccc12",
    "inhibition (%)": 5.69
  },
  {
    "Molecule": "O=C(Nc1ccccc1Cl)/C(Cl)=C(\\Cl)S(=O)c1ccccc1 (stereo unspecified)",
    "inhibition (%)": -3.21
  }
]

====

Study target: Fructose-bisphosphate aldolase (Mycobacterium tuberculosis (strain ATCC 25618 / H37Rv))
Procedure details: Mtb FBA enzyme inhibitors, primary screen, biochemical, fluorescence, strain H37Rv (AID 588726);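 also: 0% = vehicle and 100% = reference inhibitor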
Condition parameters: purified M. tuberculosis FBA, fluorescence read-out, at 1 µM
The whole screen tested about 360,000 compounds, of which about 8,200 (2.3%) were called active. Rule as the data show it: active = inhibition above about 27%; inactive = the rest. This is one part of a sample in which actives are shown more often than they occur.
Labels: class 1 for active, class 0 for inactive

[
  {
    "Molecule": "CC(CN1CCOCC1)OC(=O)c1ccc(C(C)(C)C)cc1 (stereo not drawn)",
    "Assigned class": "class 0"
  },
  {
    "Molecule": "O=C(Nc1cccc2ccccc12)NC1CC1",
    "Assigned class": "class 0"
  },
  {
    "Molecule": "CC(=O)N(C)c1ccc(NC(=O)Nc2cccc3ccccc23)cc1",
    "Assigned class": "class 0"
  },
  {
    "Molecule": "COCC(C)OC(=O)c1c(N)n(CCCN2CCOCC2)c2nc3ccccc3nc12 (stereo not drawn)",
    "Assigned class": "class 1"
  },
  {
    "Molecule": "Cc1ccc(Cc2c(-c3ccco3)nc3ccc(Cl)cn23)cc1",
    "Assigned class": "class 0"
  },
  {
    "Molecule": "COc1ccc2[nH]c3c(C)c4cc[n+](C)cc4c(C)c3c2c1",
    "Assigned class": "class 0"
  },
  {
    "Molecule": "Cc1ccc2cc(C#N)c(NCCNC(=S)NCCCN3CCOCC3)nc2c1",
    "Assigned class": "class 0"
  },
  {
    "Molecule": "CCOc1ccc(C(C)=O)cc1COC(=O)CN1C(=O)NC2(CCCC2)C1=O",
    "Assigned class": "class 0"
  },
  {
    "Molecule": "CC(C)(C)CN1CCNC(=O)C1CC(=O)NC1Cc2ccccc2C1 (stereo not drawn)",
    "Assigned class": "class 0"
  },
  {
    "Molecule": "O=c1[nH]cnc(O)c1C(c1ccc(F)cc1)c1c(O)nc[nH]c1=O",
    "Assigned class": "class 0"
  },
  {
    "Molecule": "CSc1ncnc2c1ncn2CC(=O)C1CCC2C3CCC4=CC(=O)CCC4(C)C3CCC12C (stereo not drawn)",
    "Assigned class": "class 0"
  },
  {
    "Molecule": "CCOC(=O)c1cnn(Cc2ccccc2Cl)c1N",
    "Assigned class": "class 0"
  },
  {
    "Molecule": "CCCC(C(=O)NCc1ccco1)N(C(=O)CNS(=O)(=O)c1ccccc1)C1CCCC1 (stereo not drawn)",
    "Assigned class": "class 0"
  },
  {
    "Molecule": "Cc1ccc(C)c(-n2cc(CN3CCN(C(=O)c4ncn[nH]4)CC3)c(-c3ccccc3)n2)c1",
    "Assigned class": "class 0"
  },
  {
    "Molecule": "CCOc1c2ccc(C(=O)NCc3ccc4c(c3)OCO4)cc2nn1C",
    "Assigned class": "class 1"
  },
  {
    "Molecule": "CCc1ccc(Nc2ncc3c(n2)CC(c2ccco2)CC3=O)cc1 (stereo not drawn)",
    "Assigned class": "class 0"
  },
  {
    "Molecule": "CC=CCn1c(SCCCc2ccccc2)nc2c1c(=O)[nH]c(=O)n2C",
    "Assigned class": "class 0"
  },
  {
    "Molecule": "COc1ccc(-c2nc3ccccc3n2CCC(C)C)cc1OC",
    "Assigned class": "class 0"
  },
  {
    "Molecule": "CCOc1ccc(NC(=O)COc2ccc(C(=O)NC3CCCc4ccccc43)cc2OC)cc1 (stereo not drawn)",
    "Assigned class": "class 0"
  },
  {
    "Molecule": "Cc1c(CCC(=O)O)c(=O)oc2c(C)c(OCc3ccccc3Cl)ccc12",
    "Assigned class": "class 0"
  },
  {
    "Molecule": "CC[C@@]1(C(=O)OC)N[C@H](CN(C)C(C)=O)[C@@H]2C(=O)N(C)C(=O)[C@@H]21",
    "Assigned class": "class 0"
  },
  {
    "Molecule": "CCOC(=O)c1c(CN2CCOCC2)n(-c2ccccc2)c2ccc(O)cc12",
    "Assigned class": "class 0"
  },
  {
    "Molecule": "COc1ccc(-c2nc(N)sc2C2(O)C(=O)Nc3c(Br)cc(F)cc32)cc1OC (stereo not drawn)",
    "Assigned class": "class 0"
  },
  {
    "Molecule": "CCc1cc(C(c2ccccc2OC)N2CCOCC2)c(NC(=O)c2ccccc2)s1 (stereo not drawn)",
    "Assigned class": "class 0"
  },
  {
    "Molecule": "Oc1c(Cl)cc(Cl)c(Cl)c1Cc1c(O)c(Cl)cc(Cl)c1Cl",
    "Assigned class": "class 0"
  },
  {
    "Molecule": "CCOc1c2ccc(C(=O)NC3CCCc4ccccc43)cc2nn1CC (stereo not drawn)",
    "Assigned class": "class 1"
  },
  {
    "Molecule": "CC(C)(C)OC(=O)NC(Cc1ccccc1)C(=O)NC(CSC1CCCCO1)C(=O)NN (stereo not drawn)",
    "Assigned class": "class 0"
  },
  {
    "Molecule": "CCOC(=O)Cc1cc(=O)[nH]c(=O)[nH]1",
    "Assigned class": "class 0"
  },
  {
    "Molecule": "Clc1cccc(Cc2c(-c3cccc(Cl)c3)nc3ccc(Cl)cn23)c1",
    "Assigned class": "class 0"
  },
  {
    "Molecule": "COc1ccc2[nH]c3c(c2c1)CCN[C@H]3C",
    "Assigned class": "class 0"
  },
  {
    "Molecule": "Cc1cc(C)c2nc3nc(C)cc(C)c3c(N)c2c1",
    "Assigned class": "class 1"
  },
  {
    "Molecule": "CC(C)(C)C(=O)NC1CC2CCCC(C1)N2C(=O)Nc1ccccc1F (stereo not drawn)",
    "Assigned class": "class 0"
  },
  {
    "Molecule": "C=CCOc1c2ccc(C(=O)N(CC)c3ccc(OC)cc3)cc2nn1C",
    "Assigned class": "class 0"
  },
  {
    "Molecule": "CN(C(=O)c1cccc(NC(=O)Cc2ccc(NC(=O)C3CCCN(C(=O)C4CC4)C3)cc2)c1)C1CC1 (stereo not drawn)",
    "Assigned class": "class 0"
  },
  {
    "Molecule": "C[n+]1ccc(C(=O)NCc2ccccc2)cc1",
    "Assigned class": "class 0"
  },
  {
    "Molecule": "CN1C(=O)C2(OCCCO2)c2cc(Cl)ccc21",
    "Assigned class": "class 0"
  },
  {
    "Molecule": "Cc1ccc(Nc2ccccc2N)cc1",
    "Assigned class": "class 0"
  },
  {
    "Molecule": "COCCCNC(=S)NCCNc1nc2cc(C)c(C)cc2cc1C#N",
    "Assigned class": "class 1"
  },
  {
    "Molecule": "O=C(COC(=O)c1ccc(Cl)nc1)NCc1ccc2c(c1)OCO2",
    "Assigned class": "class 0"
  },
  {
    "Molecule": "CCc1nc2c(OCCOc3ccccc3)cccn2c1N(C)C(=O)c1ccc(OC)cc1",
    "Assigned class": "class 0"
  },
  {
    "Molecule": "COc1ccc(C(C(=O)NC2CCCCC2)N(C(=O)Cc2c[nH]c3ccccc23)c2ccccc2)cc1OC (stereo not drawn)",
    "Assigned class": "class 0"
  },
  {
    "Molecule": "CCN(C(=O)COC(=O)c1c(C)nn(-c2ccccc2)c1Cl)c1c(N)n(Cc2ccccc2)c(=O)[nH]c1=O",
    "Assigned class": "class 0"
  },
  {
    "Molecule": "C#CCCOC(=O)N1C2=NC(C(=O)OC)=C(C(=O)OC)[C@@H]3N(C)c4ccc(OC)cc4[C@]23C[C@H]1C(=O)OC",
    "Assigned class": "class 0"
  }
]
